assay: Liquid stability comparative test (20 mg/mL in purified water, 40 °C, 24 hours, HPLC); assay type: physicochemical; details: degradant of Formula 4; 20 mg/mL in purified water, 40 °C, 24 hours
Where a name gives a salt, the structure may show the parent alone.
Assay endpoint: After 24 hours Degradant (%)

Examples from the recorded data:
Molecule	Experimental value
Cc1nc2c(O[C@H]3CCOc4cc(F)cc(F)c43)cc(C(=O)N(C)C)cc2[nH]1 [Pidolate Salt]	Solid precipitated
Cc1nc2c(O[C@H]3CCOc4cc(F)cc(F)c43)cc(C(=O)N(C)C)cc2[nH]1 [Methanesulfonate Salt (Amorphous Form)]	0.552%
Cc1nc2c(O[C@H]3CCOc4cc(F)cc(F)c43)cc(C(=O)N(C)C)cc2[nH]1 [Malate Salt]	Solid precipitated
Cc1nc2c(O[C@H]3CCOc4cc(F)cc(F)c43)cc(C(=O)N(C)C)cc2[nH]1 [Phosphate Salt]	Solid precipitated
Cc1nc2c(O[C@H]3CCOc4cc(F)cc(F)c43)cc(C(=O)N(C)C)cc2[nH]1 [Methanesulfonate Salt (Crystalline Form)]	0.446%

Using known records, supply After 24 hours Degradant (%) for Cc1nc2c(O[C@H]3CCOc4cc(F)cc(F)c43)cc(C(=O)N(C)C)cc2[nH]1 [Sulfate Salt]
5.414%

---

experiment: Solid-state stress stability test (humidity 90 % RH); details: Table 9, initial
Where a name gives a salt, the structure may show the parent alone.
Note: every record was labeled by where its Initial (%) Total Related substances sits among low class = under 0.2%, middle class = from 0.2% up to 0.4%, high class = 0.4% and over

Into which category would you place Cc1nc2c(O[C@H]3CCOc4cc(F)cc(F)c43)cc(C(=O)N(C)C)cc2[nH]1 [Phosphate Salt] ?
middle class

Into which category would you place Cc1nc2c(O[C@H]3CCOc4cc(F)cc(F)c43)cc(C(=O)N(C)C)cc2[nH]1 [Hemisalicylate Salt] ?
middle class

Into which category would you place Cc1nc2c(O[C@H]3CCOc4cc(F)cc(F)c43)cc(C(=O)N(C)C)cc2[nH]1 [Hydrobromide Salt] ?
high class

Into which category would you place Cc1nc2c(O[C@H]3CCOc4cc(F)cc(F)c43)cc(C(=O)N(C)C)cc2[nH]1 [Methanesulfonate Salt (Amorphous Form)] ?
high class

Into which category would you place Cc1nc2c(O[C@H]3CCOc4cc(F)cc(F)c43)cc(C(=O)N(C)C)cc2[nH]1 [Hydrochloride Salt (Amorphous Form)] ?
middle class

Into which category would you place Cc1nc2c(O[C@H]3CCOc4cc(F)cc(F)c43)cc(C(=O)N(C)C)cc2[nH]1 [Pidolate Salt] ?
low class

Into which category would you place Cc1nc2c(O[C@H]3CCOc4cc(F)cc(F)c43)cc(C(=O)N(C)C)cc2[nH]1 [Sulfate Salt] ?
high class

Into which category would you place Cc1nc2c(O[C@H]3CCOc4cc(F)cc(F)c43)cc(C(=O)N(C)C)cc2[nH]1 [Maleate Salt] ?
middle class

Into which category would you place Cc1nc2c(O[C@H]3CCOc4cc(F)cc(F)c43)cc(C(=O)N(C)C)cc2[nH]1 [Malate Salt] ?
low class

Into which category would you place Cc1nc2c(O[C@H]3CCOc4cc(F)cc(F)c43)cc(C(=O)N(C)C)cc2[nH]1 [Methanesulfonate Salt (Crystalline Form)] ?
middle class

---

So I've got a bunch of compounds here, and I need their Initial (%) Total Related substances values.
experiment: Photostability test, visible light (1.2 Mlux·hr) exposure; settings: Table 11, initial
Counter-ions that a name gives are not always drawn.

Using known records, supply Initial (%) Total Related substances for Cc1nc2c(O[C@H]3CCOc4cc(F)cc(F)c43)cc(C(=O)N(C)C)cc2[nH]1 [Pidolate Salt]
0.145%

Using known records, supply Initial (%) Total Related substances for Cc1nc2c(O[C@H]3CCOc4cc(F)cc(F)c43)cc(C(=O)N(C)C)cc2[nH]1 [Phosphate Salt]
0.254%

Using known records, supply Initial (%) Total Related substances for Cc1nc2c(O[C@H]3CCOc4cc(F)cc(F)c43)cc(C(=O)N(C)C)cc2[nH]1 [Maleate Salt]
0.357%

Using known records, supply Initial (%) Total Related substances for Cc1nc2c(O[C@H]3CCOc4cc(F)cc(F)c43)cc(C(=O)N(C)C)cc2[nH]1 [Malate Salt]
0.146%

The measurements presented in this section are drawn from patent EP4678639A1.
